# Species: Rattus norvegicus
# assayName: Saluretic activity in rats after 5-24 hours, as potassium ion concentration in urine
# Type: functional
So basically, if Saluretic activity comes in under 3 m equiv kg-1 it's true (1), and if it's 3 m equiv kg-1 or more it's false (0).

Task: Quick check: Saluretic activity of `Cn1ncc2cc(S(N)(=O)=O)c(Cl)cc2c1=O` under 3 m equiv kg-1?
Result: false (0)

Task: Quick check: Saluretic activity of `NS(=O)(=O)c1cc2cnn(-c3cccc(C(F)(F)F)c3)c(=O)c2cc1Cl` under 3 m equiv kg-1?
Result: false (0)

Task: Quick check: Saluretic activity of `NS(=O)(=O)c1cc2c(cc1Cl)C(=O)N(c1cccc(C(F)(F)F)c1)NC2` under 3 m equiv kg-1?
Result: false (0)

Task: Quick check: Saluretic activity of `NS(=O)(=O)c1cc2c(cc1Cl)C(=O)NNC2` under 3 m equiv kg-1?
Result: false (0)

Task: Quick check: Saluretic activity of `NS(=O)(=O)c1cc2c(cc1Cl)C(=O)N(Cc1ccccc1)NC2` under 3 m equiv kg-1?
Result: false (0)

Task: Quick check: Saluretic activity of `NS(=O)(=O)c1cc2c(=O)n(Cc3ccco3)ncc2cc1Cl` under 3 m equiv kg-1?
Result: true (1)

Task: Quick check: Saluretic activity of `Cn1ncc2cc(Cl)c(S(N)(=O)=O)cc2c1=O` under 3 m equiv kg-1?
Result: true (1)

Task: Quick check: Saluretic activity of `CN1NCc2cc(Cl)c(S(N)(=O)=O)cc2C1=O` under 3 m equiv kg-1?
Result: false (0)

Task: Quick check: Saluretic activity of `NS(=O)(=O)c1cc2c(cc1Cl)CNN(Cc1ccccc1)C2=O` under 3 m equiv kg-1?
Result: false (0)

Task: Quick check: Saluretic activity of `NS(=O)(=O)c1cc2c(O)nncc2cc1Cl` under 3 m equiv kg-1?
Result: true (1)

Task: Quick check: Saluretic activity of `NS(=O)(=O)c1cc2c(cc1Cl)CNN(c1cccc(C(F)(F)F)c1)C2=O` under 3 m equiv kg-1?
Result: false (0)

Task: Quick check: Saluretic activity of `NS(=O)(=O)c1cc2c(=O)n(Cc3ccccc3)ncc2cc1Cl` under 3 m equiv kg-1?
Result: false (0)

Task: Quick check: Saluretic activity of `NS(=O)(=O)c1cc2c(O)nncc2cc1Sc1ccccc1` under 3 m equiv kg-1?
Result: false (0)

Task: Quick check: Saluretic activity of `NS(=O)(=O)c1cc2c(cc1Cl)CNN(Cc1ccco1)C2=O` under 3 m equiv kg-1?
Result: false (0)

Task: Quick check: Saluretic activity of NS(=O)(=O)c1cc2c(cc1Cl)N=CNS2(=O)=O [CHLOROTHIAZIDE] under 3 m equiv kg-1?
Result: false (0)

Task: Quick check: Saluretic activity of NS(=O)(=O)c1cc(C(=O)O)c(NCc2ccco2)cc1Cl [FUROSEMIDE] under 3 m equiv kg-1?
Result: false (0)

Task: Quick check: Saluretic activity of `Cn1ncc2cc(S(N)(=O)=O)c(Sc3ccccc3)cc2c1=O` under 3 m equiv kg-1?
Result: false (0)

Task: Quick check: Saluretic activity of `NS(=O)(=O)c1cc2cnn(Cc3ccccc3)c(=O)c2cc1Cl` under 3 m equiv kg-1?
Result: false (0)

Task: Quick check: Saluretic activity of `NS(=O)(=O)c1cc2cnnc(O)c2cc1Cl` under 3 m equiv kg-1?
Result: false (0)

Task: Quick check: Saluretic activity of `NS(=O)(=O)c1cc2c(cc1Cl)CNNC2=O` under 3 m equiv kg-1?
Result: false (0)

----------
# Species on record: Rattus norvegicus
# assayName: Diuretic activity in rats at time intervals of 5-24 hours
# Assay type: functional, Urine
I'd be grateful if you could share measured Diuretic activity for these entries.
# value in mL; strip the unit string

Task: # query: Diuretic activity of entry `NS(=O)(=O)c1cc2c(cc1Cl)C(=O)N(Cc1ccccc1)NC2`
Result: 3.6

Task: # query: Diuretic activity of entry `Cn1ncc2cc(S(N)(=O)=O)c(Sc3ccccc3)cc2c1=O`
Result: 3.8

Task: # query: Diuretic activity of entry `NS(=O)(=O)c1cc2c(cc1Cl)CNN(c1cccc(C(F)(F)F)c1)C2=O`
Result: 6.7

Task: # query: Diuretic activity of entry `NS(=O)(=O)c1cc2c(O)nncc2cc1Sc1ccccc1`
Result: 4.7

Task: # query: Diuretic activity of entry NS(=O)(=O)c1cc(C(=O)O)c(NCc2ccco2)cc1Cl [FUROSEMIDE]
Result: 3

Task: # query: Diuretic activity of entry `NS(=O)(=O)c1cc2c(=O)n(Cc3ccco3)ncc2cc1Cl`
Result: 1

Task: # query: Diuretic activity of entry `NS(=O)(=O)c1cc2c(cc1Cl)C(=O)NNC2`
Result: 3.7

Task: # query: Diuretic activity of entry `NS(=O)(=O)c1cc2c(cc1Cl)C(=O)N(c1cccc(C(F)(F)F)c1)NC2`
Result: 4.5

Task: # query: Diuretic activity of entry `CN1NCc2cc(Cl)c(S(N)(=O)=O)cc2C1=O`
Result: 6.8

Task: # query: Diuretic activity of entry `Cn1ncc2cc(Cl)c(S(N)(=O)=O)cc2c1=O`
Result: 2.7

Task: # query: Diuretic activity of entry `Cn1ncc2cc(S(N)(=O)=O)c(Cl)cc2c1=O`
Result: 2.6

----------
# Organism: Rattus norvegicus
# assayName: Saluretic activity in rats after 0-24 hours, as potassium ion concentration in urine
# Format: functional
measuredProperty: Saluretic activity (m equiv kg-1)
# value in m equiv kg-1; strip the unit string

Task: # query: Saluretic activity of entry `NS(=O)(=O)c1cc2c(cc1Cl)C(=O)NNC2`
Result: 5.52

Task: # query: Saluretic activity of entry `Cn1ncc2cc(Cl)c(S(N)(=O)=O)cc2c1=O`
Result: 4.76

Task: # query: Saluretic activity of entry NS(=O)(=O)c1cc(C(=O)O)c(NCc2ccco2)cc1Cl [FUROSEMIDE]
Result: 8.78

Task: # query: Saluretic activity of entry `NS(=O)(=O)c1cc2c(O)nncc2cc1Sc1ccccc1`
Result: 5.7

Task: # query: Saluretic activity of entry `NS(=O)(=O)c1cc2c(=O)n(Cc3ccccc3)ncc2cc1Cl`
Result: 5.3

----------
# Species: Rattus norvegicus
# assayName: Saluretic activity in rats after 5-24 hours, as sodium ion concentration in urine
# Assay type: functional
measuredProperty: Saluretic activity (m equiv kg-1)
# value in m equiv kg-1; strip the unit string

Task: # query: Saluretic activity of entry `NS(=O)(=O)c1cc2c(cc1Cl)CNN(Cc1ccccc1)C2=O`
Result: 5.7

Task: # query: Saluretic activity of entry `NS(=O)(=O)c1cc2c(O)nncc2cc1Sc1ccccc1`
Result: 4.97

Task: # query: Saluretic activity of entry `NS(=O)(=O)c1cc2c(cc1Cl)C(=O)N(Cc1ccccc1)NC2`
Result: 5.5

Task: # query: Saluretic activity of entry `NS(=O)(=O)c1cc2c(cc1Cl)CNN(Cc1ccco1)C2=O`
Result: 3.09

Task: # query: Saluretic activity of entry `NS(=O)(=O)c1cc2c(cc1Cl)C(=O)N(c1cccc(C(F)(F)F)c1)NC2`
Result: 5.6

Task: # query: Saluretic activity of entry NS(=O)(=O)c1cc2c(cc1Cl)N=CNS2(=O)=O [CHLOROTHIAZIDE]
Result: 5.03

Task: # query: Saluretic activity of entry `NS(=O)(=O)c1cc2cnn(Cc3ccccc3)c(=O)c2cc1Cl`
Result: 6.29

Task: # query: Saluretic activity of entry `NS(=O)(=O)c1cc2c(cc1Cl)CNNC2=O`
Result: 4.36

----------
# Organism: Rattus norvegicus
# assayName: Diuretic activity in rats at time intervals of 5-24 hours
# Format: functional, Urine
measuredProperty: Diuretic activity (mL)
# value in mL; strip the unit string

Task: # query: Diuretic activity of entry `NS(=O)(=O)c1cc2cnn(-c3cccc(C(F)(F)F)c3)c(=O)c2cc1Cl`
Result: 4

Task: # query: Diuretic activity of entry `NS(=O)(=O)c1cc2c(cc1Cl)CNN(Cc1ccccc1)C2=O`
Result: 6.6

Task: # query: Diuretic activity of entry `NS(=O)(=O)c1cc2c(=O)n(Cc3ccccc3)ncc2cc1Cl`
Result: 4.9

Task: # query: Diuretic activity of entry `CN1NCc2cc(S(N)(=O)=O)c(Cl)cc2C1=O`
Result: 3.4

Task: # query: Diuretic activity of entry `NS(=O)(=O)c1cc2c(cc1Cl)CNN(Cc1ccco1)C2=O`
Result: 3.8

Task: # query: Diuretic activity of entry `NS(=O)(=O)c1cc2c(O)nncc2cc1Cl`
Result: 3.6

Task: # query: Diuretic activity of entry `NS(=O)(=O)c1cc2cnnc(O)c2cc1Cl`
Result: 3.2

Task: # query: Diuretic activity of entry `NS(=O)(=O)c1cc2c(=O)n(-c3cccc(C(F)(F)F)c3)ncc2cc1Cl`
Result: 4.4

Task: # query: Diuretic activity of entry `NS(=O)(=O)c1cc2c(cc1Cl)CNNC2=O`
Result: 6.2

Task: # query: Diuretic activity of entry NS(=O)(=O)c1cc2c(cc1Cl)N=CNS2(=O)=O [CHLOROTHIAZIDE]
Result: 4.7

Task: # query: Diuretic activity of entry `NS(=O)(=O)c1cc2cnn(Cc3ccccc3)c(=O)c2cc1Cl`
Result: 3.6

Provenance of the data: ChEMBL document CHEMBL1123499
